EXPERIMENTAL_TARGET: human ether-à-go-go-related gene (hERG) potassium channel (human, UniProt Q12809);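 also: peak tail current of the secondary pulse compared with the same well before compound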
Sequence (Q12809 whole entry, looked up): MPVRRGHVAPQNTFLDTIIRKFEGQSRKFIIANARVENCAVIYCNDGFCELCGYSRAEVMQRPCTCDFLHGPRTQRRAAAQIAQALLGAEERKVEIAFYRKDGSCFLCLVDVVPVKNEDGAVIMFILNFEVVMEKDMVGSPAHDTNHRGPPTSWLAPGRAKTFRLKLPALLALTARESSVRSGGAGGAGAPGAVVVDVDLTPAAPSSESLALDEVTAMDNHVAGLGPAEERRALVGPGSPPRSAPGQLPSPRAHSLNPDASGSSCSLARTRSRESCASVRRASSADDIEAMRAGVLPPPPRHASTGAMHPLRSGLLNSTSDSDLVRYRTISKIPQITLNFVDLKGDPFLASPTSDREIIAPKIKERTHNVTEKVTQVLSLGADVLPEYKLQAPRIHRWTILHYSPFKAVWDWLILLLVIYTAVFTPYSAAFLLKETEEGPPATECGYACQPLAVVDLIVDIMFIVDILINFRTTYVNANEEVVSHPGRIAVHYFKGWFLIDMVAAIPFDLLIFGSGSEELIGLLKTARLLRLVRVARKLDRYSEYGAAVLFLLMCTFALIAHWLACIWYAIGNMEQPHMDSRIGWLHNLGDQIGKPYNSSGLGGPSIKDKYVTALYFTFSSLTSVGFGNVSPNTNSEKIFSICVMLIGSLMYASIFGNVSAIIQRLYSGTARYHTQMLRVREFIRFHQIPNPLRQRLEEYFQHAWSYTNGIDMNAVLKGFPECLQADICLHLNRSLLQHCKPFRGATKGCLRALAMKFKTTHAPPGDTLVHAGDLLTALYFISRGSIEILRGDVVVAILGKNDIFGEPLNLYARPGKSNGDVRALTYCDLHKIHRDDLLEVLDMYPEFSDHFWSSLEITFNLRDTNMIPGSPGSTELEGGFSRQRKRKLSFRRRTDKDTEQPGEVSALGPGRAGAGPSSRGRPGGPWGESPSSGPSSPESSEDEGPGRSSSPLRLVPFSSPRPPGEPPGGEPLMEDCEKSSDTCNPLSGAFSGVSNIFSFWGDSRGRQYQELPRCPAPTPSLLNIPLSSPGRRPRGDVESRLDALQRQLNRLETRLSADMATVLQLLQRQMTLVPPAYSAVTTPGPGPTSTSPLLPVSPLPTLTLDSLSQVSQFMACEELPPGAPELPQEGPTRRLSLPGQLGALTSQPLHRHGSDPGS
RUN_DESCRIPTION: primary screen, population patch clamp on CHO cells stably expressing hERG; higher = less effect of the substance
In all, about 310,000 compounds went through this assay and about 14,000 (4.5%) showed an effect of 50% or more. Effects have a minus sign here. The full list was thinned out, with strong results kept by preference.
MEASUREMENT_NAME: hERG current change (%, negative = inhibition) at 10uM (%)
Quick reminder: number only, in %, skip the unit.

Query :: Which hERG current change (%, negative = inhibition) at 10uM reading was recorded for the compound `Cc1cn(S(=O)(=O)c2cc(Br)ccc2Br)cn1` ?
Result :: 1.08

Query :: So what's the measured hERG current change (%, negative = inhibition) at 10uM for this one? `N#C/C(=C/c1ccc(O)cc1)C(=O)NCc1ccc(Cl)cc1`
Result :: 23.1

Further cases:
Query :: Fill in: hERG current change (%, negative = inhibition) at 10uM of `Cc1ccc(-c2cn(CCN)c(-c3ccc(Cl)nc3)n2)cc1` is ___
Result :: -21.7

Query :: hERG current change (%, negative = inhibition) at 10uM for `COc1ccc(OCCCC(=O)Nc2ccc(N3CCCCC3)cc2)cc1.Cl` ?
Result :: -1.87

Query :: GET /values?readout=hERG current change (%, negative = inhibition) at 10uM&item= `CCOC(=O)CNC(=O)CSc1nnc(Cn2cnc3ccccc32)n1C`
Result :: -0.389

* * *

Reported values of hERG current change (%, negative = inhibition) at 10uM for individual entries
EXPERIMENTAL_TARGET: human ether-à-go-go-related gene (hERG) potassium channel (human, UniProt Q12809);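 also: peak tail current of the secondary pulse compared with the same well before compound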
RUN_DESCRIPTION: primary screen, population patch clamp on CHO cells stably expressing hERG; higher = less effect of the substance
Hit rate of the full screen: of about 310,000 compounds, about 14,000 (4.5%) showed an effect of 50% or more. Effects have a minus sign here. This excerpt belongs to a sample that is enriched for strong results.
The answer is to be given in %; state only the numeric part.

Query :: Sample `C[n+]1ccccc1/C=C1\Sc2ccccc2N1CCO.[I-]` — what was its hERG current change (%, negative = inhibition) at 10uM?
Result :: -2.79

Query :: Suppose we examine the molecule `CCOC(=O)N1CCN(S(=O)(=O)c2ccc(OC)cc2)CC1` ; what hERG current change (%, negative = inhibition) at 10uM value has been reported?
Result :: -4.57

Query :: State the recorded hERG current change (%, negative = inhibition) at 10uM for this entry: O=C(CCN1CCCCO1)N1CCCC(Nc2cccc(F)c2)C1 (stereo not shown)
Result :: 14

Query :: What value of measured hERG current change (%, negative = inhibition) at 10uM is listed for CCC(C)NC(=O)C(=O)NCc1ccccn1 (stereo not shown) ?
Result :: 14.6

Query :: Given `COc1cc2c(cc1OC)C(=S)NC1(CCCC1)C2` , state its recorded hERG current change (%, negative = inhibition) at 10uM.
Result :: 9.36

More entries:
Query :: Entry `CCC(=O)Nc1cccc(-c2nnc(-c3cccc(NC(=O)CC)c3)o2)c1` : reported hERG current change (%, negative = inhibition) at 10uM = ?
Result :: 7.83

Query :: Using the record for `Clc1cccc(Cl)c1CSc1nnc(CN2CCOCC2)n1-c1ccccc1` , report its hERG current change (%, negative = inhibition) at 10uM.
Result :: -28.9

Query :: What does the data say about its hERG current change (%, negative = inhibition) at 10uM? Entry: CCC(CO)[n+]1c(C)cc(/C=C2\Sc3ccccc3N2Cc2ccccc2)cc1C.[Br-] (stereo not shown)
Result :: -75.6

Query :: Entry under review: O=C(NCCO)C(=O)NCC1OCCCN1S(=O)(=O)c1cc(F)ccc1F (stereo not shown) . Reported hERG current change (%, negative = inhibition) at 10uM?
Result :: 13.6

Query :: Returns the measured hERG current change (%, negative = inhibition) at 10uM for the input molecule. Input: `COC(=O)C(=Nc1ccccc1)/C(C(=O)C(=O)N(C)c1ccccc1)=C(\O)c1ccccc1`
Result :: 22.7
